- targetOfAssay: WGR domain of PARP2 (Homo sapiens, UniProt Q9UGN5)
- Construct: WGR domain of PARP2 (residues 77–220) into pET-15b-TEV expression vector; 6xHis (pET-15b-TEV) (N, cleaved yes)
- Sequence (Q9UGN5 77-220): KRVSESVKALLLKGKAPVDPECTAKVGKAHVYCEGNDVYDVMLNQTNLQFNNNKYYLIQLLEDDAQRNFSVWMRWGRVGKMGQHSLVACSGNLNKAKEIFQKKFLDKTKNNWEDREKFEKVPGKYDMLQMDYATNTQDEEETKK
- test: Tryptophan fluorescence spectroscopy of the WGR domain titrated with divalent cations (one site binding fit)
- statedConditions: Trp fluorescence, one site binding fit; 10 mM HEPES pH 8.0, 150 mM NaCl, residual EDTA present; read-out: dissociation constant of the divalent cation-WGR domain complex
Measured Kd by item

[Ca+2].[Cl-].[Cl-]
29 µM

Moving on to the next compound.
Input: Which Kd value is on record for [Cl-].[Cl-].[Mg+2] ?
Output: 180 µM

Cited source: paper PMC12209172
